compounds and their reported EC50
molecular target: human mAChR M1 (Homo sapiens, UniProt P11229); experiment: mAChR M1 cell-based functional assay (calcium mobilization), agonist mode: compound alone, Emax relative to acetylcholine maximum; conditions: human mAChR M1
Sequence (P11229 whole entry): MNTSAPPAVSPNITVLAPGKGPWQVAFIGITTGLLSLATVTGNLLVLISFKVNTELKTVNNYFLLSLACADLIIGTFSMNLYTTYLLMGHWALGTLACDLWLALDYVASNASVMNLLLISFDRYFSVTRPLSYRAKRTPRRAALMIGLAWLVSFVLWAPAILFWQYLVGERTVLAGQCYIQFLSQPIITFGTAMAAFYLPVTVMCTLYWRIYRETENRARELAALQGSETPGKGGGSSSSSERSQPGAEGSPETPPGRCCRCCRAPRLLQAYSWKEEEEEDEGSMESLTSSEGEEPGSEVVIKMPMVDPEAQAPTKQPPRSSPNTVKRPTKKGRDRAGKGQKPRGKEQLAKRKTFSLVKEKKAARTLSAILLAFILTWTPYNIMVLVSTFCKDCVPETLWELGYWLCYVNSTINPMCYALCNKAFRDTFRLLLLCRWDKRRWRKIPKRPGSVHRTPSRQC
The response must be a number in µM with no trailing unit.

Previously resolved entries follow.
[[record]]
compound = "[2H]C1([2H])c2ncccc2C(=O)N1Cc1c(C)cc(-c2ccc3nn(C)cc3c2)cc1F [Compound 194]"
assay_target = "human mAChR M1 (Homo sapiens, UniProt P11229)"
endpoint_value = 3.55

[[record]]
compound = "[2H]C1([2H])c2ncccc2C(=O)N1Cc1c(F)cc(-c2ccc(O)c3nn(C)cc23)cc1F [Compound 130]"
assay_target = "human mAChR M1 (Homo sapiens, UniProt P11229)"
endpoint_value = 4.56

[[record]]
compound = "[2H]C1([2H])c2ncccc2C(=O)N1Cc1c(F)cc(-c2ccc(C)c3nn(C)cc23)cc1C1CC1 [Compound 204]"
assay_target = "human mAChR M1 (Homo sapiens, UniProt P11229)"
endpoint_value = 7.45


Alright, here's another compound for you.
Data request: Quick one: give measured EC50 for [2H]C1([2H])c2ncccc2C(=O)N1Cc1c(C)cc(-c2cccc3nn(C([2H])([2H])[2H])cc23)cc1F (single isomer, unassigned) [Compound 156]
Data returned: 8.16
